B1: Cytoplasmic polyadenylation element-binding protein 2, residues 513 to 575; numbered along this chain, Q7Z5Q1 (parent)
chain: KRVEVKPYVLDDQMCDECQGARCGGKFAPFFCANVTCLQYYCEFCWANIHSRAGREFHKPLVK

variants of: B1; assay: abundance fitness (aPCA) (normalised: wild type 0, dead -1); higher = more abundant; growth selection in yeast, the domain comes from the species named; details: Homo sapiens
readout-name: abundance fitness

R55P : -0.463

Continue with the variant presented below.
Value lookup for abundance fitness; key = `N48V`
-0.003

Entry source: the Human Domainome abundance scans (Beltran et al. 2025)
